Where these numbers come from: patent US8765696B2

Give Rate of thymus atrophy (systemic side effects) for every item shown.
# Test system: croton oil-induced granuloma
# protocolDescription: Test for croton oil-induced granuloma (air pouch exudate and thymus weight)
# Type: in vivo, rat
# conditionSet: male Wistar rats, dose 0.01 mg/rat into pouch, 7 days, vs control group
# Text: Using the croton oil granuloma test, which is a test method with which the local anti-inflammatory action and the systemic side effect can be evaluated at the same time, the pharmacological effect and the systemic side effect of the compounds of the present invention were studied. […]
Write the answer as a number in %, unit excluded.

Can you look up the measured Rate of thymus atrophy (systemic side effects) of CCCC(=O)OCC1OC(OCC(=O)C23OC(C4CCCCC4)OC2CC2C4CCC5=CC(=O)C=CC5(C)C4C(O)CC23C)C(OC(=O)CCC)C(OC(=O)CCC)C1OC(=O)CCC (centres unmarked) for me?
0.0

Can you look up the measured Rate of thymus atrophy (systemic side effects) of CC(=O)NC1C(OCC(=O)C23OC(C4CCCCC4)OC2CC2C4CCC5=CC(=O)C=CC5(C)C4C(O)CC23C)OC(COC(C)=O)C(OC(C)=O)C1OC(C)=O (centres unmarked) [Compound 12] for me?
5.8

Can you look up the measured Rate of thymus atrophy (systemic side effects) of CC(=O)NC1C(OCC(=O)C23OC(C4CCCCC4)OC2CC2C4CCC5=CC(=O)C=CC5(C)C4C(O)CC23C)OC(COC(C)=O)C(OC(C)=O)C1OC(C)=O (centres unmarked) [Compound 11] for me?
7.9

Can you look up the measured Rate of thymus atrophy (systemic side effects) of CC12C=CC(=O)C=C1CCC1C2C(O)CC2(C)C1CC1OC(C3CCCCC3)OC12C(=O)COC1OC(COC(=O)c2ccco2)C(OC(=O)c2ccco2)C(OC(=O)c2ccco2)C1OC(=O)c1ccco1 (centres unmarked) for me?
0.0

Can you look up the measured Rate of thymus atrophy (systemic side effects) of CC(=O)OCC1OC(OCC(=O)C23OC(C4CCCCC4)OC2CC2C4CCC5=CC(=O)C=CC5(C)C4C(O)CC23C)C(OC(C)=O)C(OC(C)=O)C1OC(C)=O (centres unmarked) for me?
0.0

Can you look up the measured Rate of thymus atrophy (systemic side effects) of CC12C=CC(=O)C=C1CCC1C2C(O)CC2(C)C1CC1OC(C3CCCCC3)OC12C(=O)COC1OC(COC=O)C(OC=O)C(OC=O)C1OC=O (centres unmarked) for me?
0.0

Can you look up the measured Rate of thymus atrophy (systemic side effects) of CC(=O)OC1C(C)OC(OCC(=O)C23OC(C4CCCCC4)OC2CC2C4CCC5=CC(=O)C=CC5(C)C4C(O)CC23C)C(OC(C)=O)C1OC(C)=O (centres unmarked) [Compound 9] for me?
10.8

Can you look up the measured Rate of thymus atrophy (systemic side effects) of CCCC1O[C@@H]2C[C@H]3[C@@H]4CCC5=CC(=O)C=C[C@]5(C)[C@H]4[C@@H](O)C[C@]3(C)[C@]2(C(=O)CO)O1 (stereo partly drawn) [Budesonide(R), reference compound] for me?
25.8

Can you look up the measured Rate of thymus atrophy (systemic side effects) of CCCC1O[C@@H]2C[C@H]3[C@@H]4CCC5=CC(=O)C=C[C@]5(C)[C@H]4[C@@H](O)C[C@]3(C)[C@]2(C(=O)CO)O1 (some centres unmarked) [Budesonide, budesonide, reference compound] for me?
17.7

Can you look up the measured Rate of thymus atrophy (systemic side effects) of CCC(=O)OCC1OC(OCC(=O)C23OC(C4CCCCC4)OC2CC2C4CCC5=CC(=O)C=CC5(C)C4C(O)CC23C)C(OC(=O)CC)C(OC(=O)CC)C1OC(=O)CC (centres unmarked) for me?
0.0

Can you look up the measured Rate of thymus atrophy (systemic side effects) of CC(C)C(=O)OCC1OC(OCC(=O)C23OC(C4CCCCC4)OC2CC2C4CCC5=CC(=O)C=CC5(C)C4C(O)CC23C)C(OC(=O)C(C)C)C(OC(=O)C(C)C)C1OC(=O)C(C)C (centres unmarked) for me?
0.0

====

Give Rate of thymus atrophy (systemic side effects) for every item shown.
# System: croton oil-induced granuloma
# protocolDescription: Test for croton oil-induced granuloma (air pouch exudate and thymus weight)
# Type: in vivo, rat
# conditionSet: male Wistar rats, dose 0.001 mg/rat into pouch, 7 days, vs control group
Please state the value followed by its unit.

Can you look up the measured Rate of thymus atrophy (systemic side effects) of CC(=O)OC1C(C)OC(OCC(=O)C23OC(C4CCCCC4)OC2CC2C4CCC5=CC(=O)C=CC5(C)C4C(O)CC23C)C(OC(C)=O)C1OC(C)=O (centres unmarked) [Compound 9] for me?
12.2%

Can you look up the measured Rate of thymus atrophy (systemic side effects) of CC(=O)NC1C(OCC(=O)C23OC(C4CCCCC4)OC2CC2C4CCC5=CC(=O)C=CC5(C)C4C(O)CC23C)OC(COC(C)=O)C(OC(C)=O)C1OC(C)=O (centres unmarked) [Compound 12] for me?
0.0%

Can you look up the measured Rate of thymus atrophy (systemic side effects) of CC(C)C(=O)OCC1OC(OCC(=O)C23OC(C4CCCCC4)OC2CC2C4CCC5=CC(=O)C=CC5(C)C4C(O)CC23C)C(OC(=O)C(C)C)C(OC(=O)C(C)C)C1OC(=O)C(C)C (centres unmarked) [Compound 6] for me?
0.0%

Can you look up the measured Rate of thymus atrophy (systemic side effects) of C[C@]12C=CC(=O)C=C1CC[C@@H]1[C@@H]2[C@@H](O)C[C@@]2(C)[C@H]1C[C@H]1O[C@@H](C3CCCCC3)O[C@]12C(=O)CO [desCIC, des-ciclesonide, reference compound] for me?
0.0%

Can you look up the measured Rate of thymus atrophy (systemic side effects) of CC(=O)OCC1OC(OCC(=O)C23OC(C4CCCCC4)OC2CC2C4CCC5=CC(=O)C=CC5(C)C4C(O)CC23C)C(OC(C)=O)C(OC(C)=O)C1OC(C)=O (centres unmarked) [Compound 3] for me?
0.0%

====

# Test system: croton oil-induced granuloma
# protocolDescription: Test for croton oil-induced granuloma (air pouch exudate and thymus weight)
# Assay type: in vivo, rat
# conditionSet: male Wistar rats, dose 0.001 mg/rat into pouch, 7 days, vs control group
propertyLabel: Rate of thymus atrophy (systemic side effects) (%)
Write the answer as a number in %, unit excluded.

Form: Entry = CC(=O)NC1C(OCC(=O)C23OC(C4CCCCC4)OC2CC2C4CCC5=CC(=O)C=CC5(C)C4C(O)CC23C)OC(COC(C)=O)C(OC(C)=O)C1OC(C)=O (stereo not drawn) [Compound 11] | System = croton oil-induced granuloma | Rate of thymus atrophy (systemic side effects) = ____
3.9

Form: Entry = CC(=O)OC1C(C)OC(OCC(=O)C23OC(C4CCCCC4)OC2CC2C4CCC5=CC(=O)C=CC5(C)C4C(O)CC23C)C(OC(C)=O)C1OC(C)=O (stereo not drawn) [Compound 10] | System = croton oil-induced granuloma | Rate of thymus atrophy (systemic side effects) = ____
0.0

Form: Entry = CCCC1O[C@@H]2C[C@H]3[C@@H]4CCC5=CC(=O)C=C[C@]5(C)[C@H]4[C@@H](O)C[C@]3(C)[C@]2(C(=O)CO)O1 (stereo partly drawn) [Budesonide, budesonide, reference compound] | System = croton oil-induced granuloma | Rate of thymus atrophy (systemic side effects) = ____
7.3

====

# System: croton oil-induced granuloma
# protocolDescription: Test for croton oil-induced granuloma (air pouch exudate and thymus weight)
# Assay type: in vivo, rat
# conditionSet: male Wistar rats, dose 1 mg/rat into pouch, 7 days, vs control group
# Description: Using the croton oil granuloma test, which is a test method with which the local anti-inflammatory action and the systemic side effect can be evaluated at the same time, the pharmacological effect and the systemic side effect of the compounds of the present invention were studied. […]
propertyLabel: Rate of thymus atrophy (systemic side effects) (%)
Write the answer as a number in %, unit excluded.

Can you look up the measured Rate of thymus atrophy (systemic side effects) of CC(=O)OC1C(C)OC(OCC(=O)C23OC(C4CCCCC4)OC2CC2C4CCC5=CC(=O)C=CC5(C)C4C(O)CC23C)C(OC(C)=O)C1OC(C)=O (stereo not drawn) [Compound 10] for me?
0.0

Can you look up the measured Rate of thymus atrophy (systemic side effects) of CCCC1O[C@@H]2C[C@H]3[C@@H]4CCC5=CC(=O)C=C[C@]5(C)[C@H]4[C@@H](O)C[C@]3(C)[C@]2(C(=O)CO)O1 (stereo partly drawn) [Budesonide(R), reference compound] for me?
90.2

Can you look up the measured Rate of thymus atrophy (systemic side effects) of CC12C=CC(=O)C=C1CCC1C2C(O)CC2(C)C1CC1OC(C3CCCCC3)OC12C(=O)COC1OC(COC(=O)c2ccco2)C(OC(=O)c2ccco2)C(OC(=O)c2ccco2)C1OC(=O)c1ccco1 (stereo not drawn) for me?
0.5

====

Give Rate of thymus atrophy (systemic side effects) for every item shown.
# System: croton oil-induced granuloma
# protocolDescription: Test for croton oil-induced granuloma (air pouch exudate and thymus weight)
# Assay type: in vivo, rat
# conditionSet: male Wistar rats, dose 0.01 mg/rat into pouch, 7 days, vs control group
Write the answer as a number in %, unit excluded.

Can you look up the measured Rate of thymus atrophy (systemic side effects) of CC(=O)OC1C(C)OC(OCC(=O)C23OC(C4CCCCC4)OC2CC2C4CCC5=CC(=O)C=CC5(C)C4C(O)CC23C)C(OC(C)=O)C1OC(C)=O (stereo not drawn) [Compound 10] for me?
0.0

Can you look up the measured Rate of thymus atrophy (systemic side effects) of C[C@]12C=CC(=O)C=C1CC[C@@H]1[C@@H]2[C@@H](O)C[C@@]2(C)[C@H]1C[C@H]1O[C@@H](C3CCCCC3)O[C@]12C(=O)CO [desCIC, des-ciclesonide, reference compound] for me?
11.7

Can you look up the measured Rate of thymus atrophy (systemic side effects) of CC(C)C(=O)OCC(=O)[C@@]12O[C@H](C3CCCCC3)O[C@@H]1C[C@H]1[C@@H]3CCC4=CC(=O)C=C[C@]4(C)[C@H]3[C@@H](O)C[C@@]12C [Ciclesonide, ciclesonide, reference compound] for me?
13.0
